System: COS Cell
Method Description: COS Cell IC50 (Cell-Based Assay)
Conditions Used: Table 5; read-out: Cos Cell IC50
Reported Property: pIC50
// pIC50 is dimensionless: -log10 of concentration (M)

Ask: Param item = COC(=O)c1cccn1CC(=O)N1CCC(CC(=O)N2CCC([C@H]3c4ncc(Br)cc4CCc4cc(Cl)cc(Br)c43)CC2)CC1 ; retrieve measured pIC50.
Result: 7.30

====

Study Target: farnesyl protein transferase (FPT), K-ras (Homo sapiens, UniProt P49354+P49356)
Method Description: FPT IC50 (K-ras), inhibition of farnesyl protein transferase, in vitro enzyme assay
Assay type: biochemical
Reported Property: IC50 (nM)
Dear colleague, please return just the value in nM, with no unit written.

Ask: Value wanted: IC50 (farnesyl protein transferase (FPT), K-ras (Homo sapiens, UniProt P49354+P49356)) of entry CC(C)(C)OC(=O)N[C@@H](Cc1c[nH]cn1)C(=O)N1CCC(CC(=O)N2CCC([C@H]3c4ncc(Br)cc4CCc4cc(Cl)cc(Br)c43)CC2)CC1
Result: 41

Ask: Value wanted: IC50 (farnesyl protein transferase (FPT), K-ras (Homo sapiens, UniProt P49354+P49356)) of entry N[C@@H](Cc1ccccc1)C(=O)N1CCC(CC(=O)N2CCC([C@H]3c4ncc(Br)cc4CCc4cc(Cl)cc(Br)c43)CC2)CC1
Result: 71.2

Ask: Value wanted: IC50 (farnesyl protein transferase (FPT), K-ras (Homo sapiens, UniProt P49354+P49356)) of entry CC(C)=NOCC(=O)N1CCC(CC(=O)N2CCC([C@H]3c4ncc(Br)cc4CCc4cc(Cl)cc(Br)c43)CC2)CC1
Result: 41

Ask: Value wanted: IC50 (farnesyl protein transferase (FPT), K-ras (Homo sapiens, UniProt P49354+P49356)) of entry C[C@@H](N)C(=O)N1CCC(CC(=O)N2CCC([C@H]3c4ncc(Br)cc4CCc4cc(Cl)cc(Br)c43)CC2)CC1
Result: 31

Ask: Value wanted: IC50 (farnesyl protein transferase (FPT), K-ras (Homo sapiens, UniProt P49354+P49356)) of entry C[C@H](N)C(=O)N1CCC(CC(=O)N2CCC([C@H]3c4ncc(Br)cc4CCc4cc(Cl)cc(Br)c43)CC2)CC1
Result: 23.8

====

I'd appreciate it if you could supply pIC50 values for the items below.
Test system: COS Cell
Method Description: COS Cell IC50 (Cell-Based Assay)
Conditions Used: COS, Table 5; read-out: Cos Cell IC50
Protocol: FPT IC50 (inhibition of farnesyl protein transferase, in vitro enzyme assay) and COS Cell IC50 (Cell-Based Assay) were determined following the assay procedures described in WO 95/10516, published Apr. 20, 1995. GGPT IC50 (inhibition of geranylgeranyl protein transferase, in vitro enzyme assay), Cell Mat Assay, and anti-tumor activity (in vivo anti-tumor studies) could be determined by the assay procedures described in WO 95/10516. […]
// pIC50 is dimensionless: -log10 of concentration (M)

Ask: Value wanted: pIC50 (COS Cell) of entry O=C(NOCc1ccccc1)C(=O)N1CCC(CC(=O)N2CCC([C@H]3c4ncc(Br)cc4CCc4cc(Cl)cc(Br)c43)CC2)CC1 [Cmpd 60.0-B]
Result: 6.92

Ask: Value wanted: pIC50 (COS Cell) of entry O=C(CC1CCN(C(=O)CN2CCS(=O)(=O)CC2)CC1)N1CCC([C@H]2c3ncc(Br)cc3CCc3cc(Cl)cc(Br)c32)CC1 [Cmpd 6.0-B]
Result: 7.52

Ask: Value wanted: pIC50 (COS Cell) of entry C[C@@H](N)C(=O)N1CCC(CC(=O)N2CCC([C@H]3c4ncc(Br)cc4CCc4cc(Cl)cc(Br)c43)CC2)CC1 [Example 6]
Result: 7.41

====

Test system: COS Cell
Method Description: COS Cell IC50 (Cell-Based Assay)
Conditions Used: COS, Table 5; read-out: Cos Cell IC50
Mark Met for IC50 under 30 nM, Not met if at or over.

Ask: Is IC50 strictly under 30 nM for the entry O=C(O)C(=O)N1CCC(CC(=O)N2CCC([C@H]3c4ncc(Br)cc4CCc4cc(Cl)cc(Br)c43)CC2)CC1 ?
Result: Not met

Ask: Is IC50 strictly under 30 nM for the entry O=C(CC1CCN(C(=O)Cn2cnc3ccccc32)CC1)N1CCC([C@H]2c3ncc(Br)cc3CCc3cc(Cl)cc(Br)c32)CC1 ?
Result: Met

Ask: Is IC50 strictly under 30 nM for the entry N#CCC(=O)N1CCC(CC(=O)N2CCC([C@H]3c4ncc(Br)cc4CCc4cc(Cl)cc(Br)c43)CC2)CC1 ?
Result: Met

Ask: Is IC50 strictly under 30 nM for the entry CC(C)(C)OC(=O)N[C@@H](Cc1c[nH]cn1)C(=O)N1CCC(CC(=O)N2CCC([C@H]3c4ncc(Br)cc4CCc4cc(Cl)cc(Br)c43)CC2)CC1 ?
Result: Not met

Ask: Is IC50 strictly under 30 nM for the entry Cc1nccn1CC(=O)N1CCC(CC(=O)N2CCC([C@H]3c4ncc(Br)cc4CCc4cc(Cl)cc(Br)c43)CC2)CC1 ?
Result: Met

Ask: Is IC50 strictly under 30 nM for the entry O=C(CC1CCN(C(=O)Cn2cnc3cccnc32)CC1)N1CCC([C@H]2c3ncc(Br)cc3CCc3cc(Cl)cc(Br)c32)CC1 ?
Result: Met

Ask: Is IC50 strictly under 30 nM for the entry NC(=O)CC(=O)N1CCC(CC(=O)N2CCC([C@H]3c4ncc(Br)cc4CCc4cc(Cl)cc(Br)c43)CC2)CC1 ?
Result: Met

Ask: Is IC50 strictly under 30 nM for the entry C[C@H](N)C(=O)N1CCC(CC(=O)N2CCC([C@H]3c4ncc(Br)cc4CCc4cc(Cl)cc(Br)c43)CC2)CC1 ?
Result: Not met

Ask: Is IC50 strictly under 30 nM for the entry O=C(CC1CCN(C(=O)C2CC(O)CN2)CC1)N1CCC([C@H]2c3ncc(Br)cc3CCc3cc(Cl)cc(Br)c32)CC1 (stereo partly drawn) ?
Result: Not met

Ask: Is IC50 strictly under 30 nM for the entry CCOC(=O)CC(CC(=O)N1CCC(CC(=O)N2CCC(C3c4ncc(Br)cc4CCc4cc(Cl)cc(Br)c43)CC2)CC1)OC(C)=O (stereo not drawn) ?
Result: Met

Ask: Is IC50 strictly under 30 nM for the entry O=C(CC1CCN(C(=O)CN2C(=O)CSC2=O)CC1)N1CCC([C@H]2c3ncc(Br)cc3CCc3cc(Cl)cc(Br)c32)CC1 ?
Result: Not met

Ask: Is IC50 strictly under 30 nM for the entry NCCC(=O)N1CCC(CC(=O)N2CCC([C@H]3c4ncc(Br)cc4CCc4cc(Cl)cc(Br)c43)CC2)CC1 ?
Result: Met

Ask: Is IC50 strictly under 30 nM for the entry O=C(CO/N=C/c1cc[n+]([O-])cc1)N1CCC(CC(=O)N2CCC([C@H]3c4ncc(Br)cc4CCc4cc(Cl)cc(Br)c43)CC2)CC1 ?
Result: Not met

Ask: Is IC50 strictly under 30 nM for the entry CCOC(=O)c1c(C)ncn1CC(=O)N1CCC(CC(=O)N2CCC([C@H]3c4ncc(Br)cc4CCc4cc(Cl)cc(Br)c43)CC2)CC1 ?
Result: Not met

Ask: Is IC50 strictly under 30 nM for the entry O=C(Cc1cccs1)N1CCC(CC(=O)N2CCC([C@H]3c4ncc(Br)cc4CCc4cc(Cl)cc(Br)c43)CC2)CC1 ?
Result: Met

Ask: Is IC50 strictly under 30 nM for the entry Cc1cn(CC(=O)N2CCC(CC(=O)N3CCC([C@H]4c5ncc(Br)cc5CCc5cc(Cl)cc(Br)c54)CC3)CC2)cn1 ?
Result: Met

Ask: Is IC50 strictly under 30 nM for the entry NC(=O)CCCCCC(=O)N1CCC(CC(=O)N2CCC([C@H]3c4ncc(Br)cc4CCc4cc(Cl)cc(Br)c43)CC2)CC1 ?
Result: Met

Ask: Is IC50 strictly under 30 nM for the entry O=C(CC1CCN(C(=O)CC2CCCO2)CC1)N1CCC([C@H]2c3ncc(Br)cc3CCc3cc(Cl)cc(Br)c32)CC1 (stereo partly drawn) ?
Result: Met

====

I'd appreciate it if you could supply melting point values for the items below.

Ask: Param item = COC(=O)CCC(=O)N1CCC(CC(=O)N2CCC(C3c4ncc(Br)cc4CCc4cc(Cl)cc(Br)c43)CC2)CC1 (single isomer, unassigned; (+)) ; retrieve measured melting point.
Result: 114 to 115 °C

Ask: Param item = CCOC(=O)CC(=O)N1CCC(CC(=O)N2CCC(C3c4ncc(Br)cc4CCc4cc(Cl)cc(Br)c43)CC2)CC1 (single isomer, unassigned; (+)) ; retrieve measured melting point.
Result: 77 to 78 °C

Ask: Param item = COC(=O)CCCC(=O)N1CCC(CC(=O)N2CCC(C3c4ncc(Br)cc4CCc4cc(Cl)cc(Br)c43)CC2)CC1 (single isomer, unassigned; (+)) ; retrieve measured melting point.
Result: 101 to 102 °C

Ask: Param item = O=C(CCN1CCCCC1)N1CCC(CC(=O)N2CCC(C3c4ncc(Br)cc4CCc4cc(Cl)cc(Br)c43)CC2)CC1 (single isomer, unassigned; (+)) ; retrieve measured melting point.
Result: 127 to 128 °C

Ask: Param item = CN(C)CCC(=O)N1CCC(CC(=O)N2CCC(C3c4ncc(Br)cc4CCc4cc(Cl)cc(Br)c43)CC2)CC1 (single isomer, unassigned; (+)) ; retrieve measured melting point.
Result: 82 to 84 °C

// data source = patent US6387905B2
